Target: PDZ1-2 tandem of PSD-95 (Homo sapiens)
Numbered stars: 1 amine (or outer) side, 2 acyl side, 3 side chain; on linkers, the order of the positions; unused ones are H or OH. Bridge positions count the residues as written; N and C are the ends. Peptide text beside a SMILES is read from it. I, II: the chains in the order shown. CO(CH2CH2O)9CH2CH2CO = O=C(CCOCCOCCOCCOCCOCCOCCOCCOCCOCCC(=O)[*:2])[*:1]
resultType: Ki (nM)
Field: numeric (nM). Do not append units.

Send back PDZ1-2 tandem of PSD-95 (Homo sapiens) Ki of CC(C)[C@H](NC(=O)[C@H](CC(=O)O)NC(=O)[C@H](CO)NC(=O)[C@H](CCC(=O)O)NC(=O)CCOCCOCCOCCOCCOCCOCCOCCOCCOCCC(=O)N[C@@H](CCC(=O)O)C(=O)N[C@@H](CO)C(=O)N[C@@H](CC(=O)O)C(=O)N[C@H](C(=O)O)C(C)C)C(=O)O [Compound 85] (I: ESDV-OH / II: ESDV-OH; linker I:N-II:N via CO(CH2CH2O)9CH2CH2CO; C-terminus assumed) only. 1000

----------
Numbered stars: 1 amine (or outer) side, 2 acyl side, 3 side chain; on linkers, the order of the positions; unused ones are H or OH. Bridge positions count the residues as written; N and C are the ends. Peptide text beside a SMILES is read from it. I, II: the chains in the order shown. CO(CH2CH2O)13CH2CH2CO = O=C(CCOCCOCCOCCOCCOCCOCCOCCOCCOCCOCCOCCOCCOCCC(=O)[*:2])[*:1]
PDZ2 of PSD-95 (Homo sapiens, UniProt P78352): reported Ki for various compounds.
Field: numeric (µM). Do not append units.

Use these answered entries as a reference point.
compound	numericValue
CC(C)[C@H](NC(=O)[C@H](CC(=O)O)NC(=O)[C@H](CO)NC(=O)[C@H](CCC(=O)O)NC(=O)CCOCCOCCOCCOCCOCCOCCOCCOCCOCCOCCOCCOCCOCCC(=O)N[C@@H](CCC(=O)O)C(=O)N[C@@H](CO)C(=O)N[C@@H](CC(=O)O)C(=O)N[C@H](C(=O)O)C(C)C)C(=O)O [Compound 84] (I: ESDV-OH / II: ESDV-OH; linker I:N-II:N via CO(CH2CH2O)13CH2CH2CO; C-terminus assumed)	22
CC(C)C[C@H](NC(=O)CNC(=O)[C@H](CO)NC(=O)[C@@H](N)CCCCN)C(=O)N[C@@H](CC(=O)O)C(=O)N[C@H](C(=O)N[C@@H](CCCCN)C(=O)N[C@@H](CC(N)=O)C(=O)N[C@@H](Cc1ccc(O)cc1)C(=O)N[C@@H](CCCCN)C(=O)N[C@@H](CCC(N)=O)C(=O)N[C@H](C(=O)N[C@@H](CO)C(=O)N[C@H](C(=O)O)C(C)C)[C@@H](C)O)[C@@H](C)O [CRIPT (2), reference compound]	25
CC(C)[C@H](NC(=O)[C@H](C)NC(=O)[C@@H](NC(=O)[C@H](CCC(=O)O)NCCc1ccc(Cl)c(Cl)c1)C(C)O)C(=O)O (stereo partly shown)	1.1

Shifting focus to the compound that follows.
Entry CC(C)[C@H](NC(=O)[C@H](C)NC(=O)[C@@H](NC(=O)[C@H](CCC(=O)O)NCCC1CCCCC1)C(C)O)C(=O)O (stereo partly shown) needs its Ki filled in; supply it. 0.45

----------
Biological target: PDZ1-2 tandem of PSD-95 (Homo sapiens, UniProt P78352)
Ki values, listed per item
Field: numeric (nM). Do not append units.

molecule	tgt	Ki / nM
CC(C)C[C@H](NC(=O)CNC(=O)[C@H](CO)NC(=O)[C@@H](N)CCCCN)C(=O)N[C@@H](CC(=O)O)C(=O)N[C@H](C(=O)N[C@@H](CCCCN)C(=O)N[C@@H](CC(N)=O)C(=O)N[C@@H](Cc1ccc(O)cc1)C(=O)N[C@@H](CCCCN)C(=O)N[C@@H](CCC(N)=O)C(=O)N[C@H](C(=O)N[C@@H](CO)C(=O)N[C@H](C(=O)O)C(C)C)[C@@H](C)O)[C@@H](C)O [CRIPT (2), reference compound]	PDZ1-2 tandem of PSD-95 (Homo sapiens, UniProt P78352)	45000

Shifting focus to the molecule that follows.
Send back PDZ1-2 tandem of PSD-95 (Homo sapiens, UniProt P78352) Ki of CC[C@H](C)[C@H](NC(=O)CCOCCOCCOCCOCCOCCC(=O)N[C@H](C(=O)N[C@@H](C)C(=O)N[C@H](C(=O)N[C@@H](C)C(=O)N[C@H](C(=O)O)C(C)C)[C@@H](C)O)[C@@H](C)CC)C(=O)N[C@@H](C)C(=O)N[C@H](C(=O)N[C@@H](C)C(=O)N[C@H](C(=O)O)C(C)C)[C@@H](C)O only. 1100

----------
Target: PDZ1-2 tandem of PSD-95 (Homo sapiens, UniProt P78352)
Construct: PDZ1-2 (residues 61-249) tandem; made in house; host or cells: E. coli BL21-DE3 pLysS
Assay: FP heterologous competition binding assay
Details: mean ± SEM
Ends that are not written are not given here.
resultType: pKi
Just the number, please; pKi means minus log10 of the concentration in mol/L.

                                  substance  numericvalue
0  YGRKKRRQRRRKLSSIESDV [Tat-NR2B (3), reference compound]          5.01

Shifting focus to the substance that follows.
Entry KSGYEKLSSIESDV-OH [NR2B (1), reference compound] needs its pKi filled in; supply it. 5.15

----------
Assay: Human blood plasma stability assay
Format: in vitro ADME
Settings: human blood plasma, 37° C., 0.25 mM; read-out: Blood plasma half life (T1/2)
Ends that are not written are not given here.
resultType: half-life at […] (h)
Field: numeric (h). Do not append units.

Entry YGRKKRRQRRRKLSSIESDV [Tat-NR2B (3), reference compound] needs its half-life at […] filled in; supply it. 24.5

----------
Target: PDZ3 of PSD-95 (Homo sapiens)
Sequence (P78352 with tags, fused parts or gaps): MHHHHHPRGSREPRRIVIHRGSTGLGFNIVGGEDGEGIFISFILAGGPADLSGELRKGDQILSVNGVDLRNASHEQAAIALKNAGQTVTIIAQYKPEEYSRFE
pKi values, listed per item
Just the number, please; pKi means minus log10 of the concentration in mol/L.

molecule	resultType	numericValue
CN[C@@H](CCC(=O)O)C(=O)N[C@H](C(=O)N[C@@H](C)C(=O)N[C@H](C(=O)O)C(C)C)C(C)O (stereo partly shown) [Compound 40, N-Methyl-ETAV]	pKi	4.11

Send back PDZ3 of PSD-95 (Homo sapiens) pKi of CC(C)[C@H](NC(=O)[C@H](C)NC(=O)[C@@H](NC(=O)[C@H](CCC(=O)O)NCCc1ccc2ccccc2c1)C(C)O)C(=O)O (stereo partly shown) [Compound 63, N-(Naphtalene-2-yl)ethyl-ETAV] only. 5.00

Send back PDZ3 of PSD-95 (Homo sapiens) pKi of CC(C)[C@H](NC(=O)[C@H](C)NC(=O)[C@@H](NC(=O)[C@H](CCC(=O)O)NCCC1CCCCC1)C(C)O)C(=O)O (stereo partly shown) [Compound 56, N-Cyclohexylethyl-ETAV] only. 4.96

----------
Assay: Human blood plasma stability assay
Assay type: in vitro ADME
Details: human, plasma, Blood plasma half life (T1/2)
resultType: half-life

Entry CC[C@H](C)[C@H](NC(=O)CCOCCOCCOCCOCCOCCC(=O)N[C@H](C(=O)N[C@@H](C)C(=O)N[C@H](C(=O)N(C)[C@@H](C)C(=O)N[C@H](C(=O)O)C(C)C)[C@@H](C)O)[C@@H](C)CC)C(=O)N[C@@H](C)C(=O)N[C@H](C(=O)N(C)[C@@H](C)C(=O)N[C@H](C(=O)O)C(C)C)[C@@H](C)O needs its half-life filled in; supply it. > 133 h

----------
UniProt:P78352: reported Ki for various compounds.
Field: numeric (µM). Do not append units.

compound	Ki [µM]
CC(C)[C@H](NC(=O)[C@H](C)NC(=O)[C@@H](NC(=O)[C@H](CCC(=O)O)NCC1CCCCC1)C(C)O)C(=O)O (some centres unmarked)	21

Shifting focus to the compound that follows.
Entry CC(C)C[C@H](NC(=O)CNC(=O)[C@H](CO)NC(=O)[C@@H](N)CCCCN)C(=O)N[C@@H](CC(=O)O)C(=O)N[C@H](C(=O)N[C@@H](CCCCN)C(=O)N[C@@H](CC(N)=O)C(=O)N[C@@H](Cc1ccc(O)cc1)C(=O)N[C@@H](CCCCN)C(=O)N[C@@H](CCC(N)=O)C(=O)N[C@H](C(=O)N[C@@H](CO)C(=O)N[C@H](C(=O)O)C(C)C)[C@@H](C)O)[C@@H](C)O [CRIPT (2), reference compound] needs its Ki filled in; supply it. 2.1

----------
Target: PDZ1-2 tandem of PSD-95 (Homo sapiens)
Peptide text beside a SMILES is read from it.
resultType: pKi
Just the number, please; pKi means minus log10 of the concentration in mol/L.

Send back PDZ1-2 tandem of PSD-95 (Homo sapiens) pKi of CC(C)[C@H](NC(=O)[C@H](CC(=O)O)NC(=O)[C@H](CO)NC(=O)[C@@H](N)CCC(=O)O)C(=O)O [ESDV (8), ESDV] (H-ESDV-OH; N-terminus and C-terminus assumed) only. 4.55
